test: Inhibition of recombinant Escherichia coli topoisomerase 1a expressed in Escherichia coli assessed as reduction in enzyme-mediated relaxation of supercoiled pBAD/Thio DNA preincubated with enzyme followed by substrate addition measured after 30 mins by ethidium bromide staining based agarose gel electrophoresis method
measure name: IC50 (nM)

molecule smiles	measure name	readout number
CCOC(=O)c1cn2c3c(c(N4CCN(C)CC4)c(F)cc3c1=O)Oc1cc([N+](=O)[O-])ccc1-2	IC50	1950
CC(C)(C)OC(=O)N[C@H]1CCN(c2c(F)cc3c(=O)c(C(=O)O)cn4c3c2Oc2cc(N)ccc2-4)C1	IC50	3900
O=C(O)c1cn2c3c(c(F)c(F)cc3c1=O)Oc1cc([N+](=O)[O-])ccc1-2	IC50	15600
Nc1ccc2c(c1)Oc1c(N3CCOCC3)c(F)cc3c(=O)c(C(=O)O)cn-2c13	IC50	970
CN1CCN(c2c(F)cc3c(=O)c(C(=O)O)cn4c3c2Oc2cc(N)ccc2-4)CC1	IC50	480
N[C@H]1CCN(c2c(F)cc3c(=O)c(C(=O)O)cn4c3c2Oc2cc([N+](=O)[O-])ccc2-4)C1	IC50	480
CCOC(=O)c1cn2c3c(c(F)c(F)cc3c1=O)Oc1cc(C#N)ccc1-2	IC50	31200
Nc1ccc2c(c1)Oc1c(F)c(F)cc3c(=O)c(C(=O)O)cn-2c13	IC50	1950
